src = patent US20220177589A1

systemName: chimeric BTLA of humanised-BTLA mice (human extracellular region, murine transmembrane and signaling … (human; mouse, UniProt Q7TSA3 184-306, limits assumed)
Sequence (Q7TSA3 other isoform, or with tags, fused parts or gaps mutant limits assumed): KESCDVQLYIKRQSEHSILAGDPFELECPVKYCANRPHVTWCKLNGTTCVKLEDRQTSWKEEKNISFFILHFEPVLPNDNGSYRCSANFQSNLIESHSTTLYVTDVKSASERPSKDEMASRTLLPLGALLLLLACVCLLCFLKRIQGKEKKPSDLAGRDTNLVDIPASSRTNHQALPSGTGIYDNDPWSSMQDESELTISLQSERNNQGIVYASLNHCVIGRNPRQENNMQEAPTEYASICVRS
experimentDescription: cell-based or functional assay
quantity: AntiCD3/CD28 (CD4 T cell proliferation) repeat 2, % inhibition (%)
Give bare numbers, in %.

{"binder": "15C6 (antibody, IgG1, V domains shown) VH: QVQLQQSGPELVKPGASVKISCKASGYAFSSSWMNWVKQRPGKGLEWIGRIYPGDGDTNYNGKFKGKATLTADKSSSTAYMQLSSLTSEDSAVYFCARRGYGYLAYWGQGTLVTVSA VL: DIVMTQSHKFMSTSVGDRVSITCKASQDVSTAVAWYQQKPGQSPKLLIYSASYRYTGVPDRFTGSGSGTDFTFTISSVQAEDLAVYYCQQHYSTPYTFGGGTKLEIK", "unitsSymbol": "%", "reportedResult": -2}

Could you tell me which AntiCD3/CD28 (CD4 T cell proliferation) repeat 2, % inhibition is on file for 6.2 (antibody, IgG1, V domains shown) VH: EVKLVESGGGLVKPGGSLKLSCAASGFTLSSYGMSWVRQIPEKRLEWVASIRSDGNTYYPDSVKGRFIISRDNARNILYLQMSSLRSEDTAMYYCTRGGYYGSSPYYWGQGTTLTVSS VL: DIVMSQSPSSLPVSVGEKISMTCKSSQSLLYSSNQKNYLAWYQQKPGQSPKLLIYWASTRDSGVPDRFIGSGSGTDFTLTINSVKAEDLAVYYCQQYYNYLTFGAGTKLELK ?
21
